MEASUREMENT_DESCRIPTION: viability of HCT116 lacking mutant beta-catenin – cell-based, DP diverse set, validation, pilot screen (AID 1004)
PROTOCOL_CONDITIONS: HCT116 (mutant beta-catenin deleted) viability, CellTiter-Glo, 60 h; at 10 µM; stronger effect = lower value
Active and inactive are the calls of the source.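 How the source made its calls: active means viability at 10 µM of 29.74% or lower, 3 SD below the compound median; inactive means the rest.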
REPORTED_METRIC: viability

QUERY: Suppose we examine the compound CC(C)(C)[C@]1(O)C[C@@H]2OC(=O)CC23C(=O)O[C@@H]2OC(=O)[C@H](O)C231 (stereo not given in full) ; what viability value has been reported?
RESULT: 93.5% (inactive)

QUERY: Suppose we examine the compound COC[C@H]1OC(=O)c2coc3c2[C@@]1(C)C1=C(C3=O)C2CCC(=O)[C@@]2(C)C[C@H]1OC(C)=O (stereo not given in full) ; what viability value has been reported?
RESULT: 78.1% (inactive)

QUERY: Suppose we examine the compound "N#CC(C#N)=Cc1cc(O)c(O)c([N+](=O)[O-])c1" ; what viability value has been reported?
RESULT: 101% (inactive)

QUERY: Suppose we examine the compound "O=C1CCC[C@H]2[C@@H]3CCCN4CCC[C@H](CN12)[C@H]34" ; what viability value has been reported?
RESULT: 104% (inactive)

QUERY: Suppose we examine the compound "C[C@]12CC[C@@H](O)C[C@@H]1CC[C@@H]1[C@@H]2CC[C@]2(C)C(=O)CC[C@@H]12" ; what viability value has been reported?
RESULT: 98.5% (inactive)
